- Experimental protocol: Metabolic stability in rat liver microsomes assessed as intact compound level at 5 uM after 1 hr
- Format: ADME
- Experimental conditions: read-out: Stability
Endpoint label: remaining at 1 h, 5 µM

entry_smiles=COC(=O)N[C@H](C(=O)N1C[C@@H](C)C[C@H]1c1ncc(-c2ccc(-c3ccc(-c4cc5[nH]c([C@@H]6C[C@H](C)CN6C(=O)[C@@H](NC(=O)OC)C(C)C)nc5s4)cc3)cc2)[nH]1)C(C)C value=91%

====

- Experimental protocol: Metabolic stability in human liver microsomes assessed as intact compound level at 5 uM after 1 hr
- Assay type: ADME
- Experimental conditions: read-out: Stability
Endpoint label: remaining at 1 h, 5 µM (%)

entry_smiles=COC(=O)N[C@H](C(=O)N1C[C@@H](C)C[C@H]1c1ncc(-c2ccc(-c3ccc(-c4cc5[nH]c([C@@H]6C[C@H](C)CN6C(=O)[C@@H](NC(=O)OC)C(C)C)nc5s4)cc3)cc2)[nH]1)C(C)C endpoint_label="remaining at 1 h, 5 µM" value=100
